Quick reference for inhibition at 1 µM among some compounds
Target: PLA2G7 (Mus musculus, UniProt Q60963)
Construct: Proteomes (mouse brain membrane fraction or cell lysates); from tissue; host or cells: mouse brain membrane fraction (or cell lysates, not specified)
Sequence (Q60963 22-440): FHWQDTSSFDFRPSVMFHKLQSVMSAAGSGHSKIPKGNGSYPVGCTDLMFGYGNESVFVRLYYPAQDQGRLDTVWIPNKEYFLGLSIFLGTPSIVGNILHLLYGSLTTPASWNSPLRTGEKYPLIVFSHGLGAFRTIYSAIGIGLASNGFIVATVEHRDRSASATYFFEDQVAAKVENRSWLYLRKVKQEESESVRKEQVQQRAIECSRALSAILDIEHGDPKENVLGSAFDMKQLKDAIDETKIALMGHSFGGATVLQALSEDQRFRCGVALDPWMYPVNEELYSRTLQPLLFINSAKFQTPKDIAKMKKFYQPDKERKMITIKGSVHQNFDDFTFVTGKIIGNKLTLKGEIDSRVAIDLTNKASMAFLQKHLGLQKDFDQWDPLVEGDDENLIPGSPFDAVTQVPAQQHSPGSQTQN
Assay: In vitro competitive activity-based protein profiling (gel-based, FP-Rh or HT-01 probe)
Format: biochemical
Settings: 1 μM inhibitor; read-out: % Inhibition at 1 μM, D = PLA2G7

Query block: Look up inhibition at 1 µM of Cc1cc(-c2ccccc2)ccc1CN1CCN(C(=O)n2cc(C(F)(F)F)cn2)CC1 [Example 142] and report it.
Result block: > 75%

* * *

Biological target: MAGL (Mus musculus)
Construct: Proteomes (mouse brain membrane fraction or cell lysates); from tissue; host or cells: mouse brain membrane fraction (or cell lysates, not specified)
Sequence (O35678 1-303): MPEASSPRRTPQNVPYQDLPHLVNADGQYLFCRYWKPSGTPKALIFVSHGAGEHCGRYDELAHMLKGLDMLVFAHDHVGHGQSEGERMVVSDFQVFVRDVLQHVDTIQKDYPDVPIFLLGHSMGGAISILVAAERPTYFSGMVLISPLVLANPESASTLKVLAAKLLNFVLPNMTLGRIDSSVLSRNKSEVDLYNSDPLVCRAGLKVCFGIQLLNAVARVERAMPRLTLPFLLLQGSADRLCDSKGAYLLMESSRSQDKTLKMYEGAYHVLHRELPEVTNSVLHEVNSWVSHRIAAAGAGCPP
Assay: In vitro competitive activity-based protein profiling (gel-based, FP-Rh or HT-01 probe)
Format: biochemical
Details: 1 μM inhibitor
Metric Name: inhibition at 1 µM

// solved cases for inhibition at 1 µM follow
[[record]]
molecule = "CC(C)c1cnn(C(=O)N2CCN(C(c3ccc(Cl)cc3)c3ccc(Cl)cc3)CC2)c1 [Example 120]"
value_reported = "25 to 75%"

[[record]]
molecule = "NC(=O)c1cnn(C(=O)N2CCN(Cc3ccc(Cl)cc3)CC2)c1 [Example 204]"
value_reported = "> 75%"

[[record]]
molecule = "Cc1cnn(C(=O)N2CCCN(C(=O)OC(C)(C)C)CC2)c1 [Example 26]"
value_reported = "< 25%"

[[record]]
molecule = "O=C(N1CCN(c2cccc(N3CCCC3)c2)CC1)n1cc(C(F)(F)F)cn1 [Example 240]"
value_reported = "> 75%"

[[record]]
molecule = "O=C(N1CCN(Cc2ccc(N3CCCC3)cc2)CC1)n1cc(Cl)cn1 [Example 212]"
value_reported = "> 75%"


Query block: Look up inhibition at 1 µM of CC(=O)N1CCN(C(=O)n2cc(C(F)(F)F)cn2)CC1 [Example 149] and report it.
Result block: < 25%

Query block: Look up inhibition at 1 µM of CC(C)c1cnn(C(=O)N2CCN(Cc3c(N4CCCC4)cccc3C(F)(F)F)CC2)c1 [Example 112] and report it.
Result block: < 25%

Query block: Look up inhibition at 1 µM of N#Cc1cnn(C(=O)N2CCN(Cc3ccc(-c4ccccc4)cc3Cl)CC2)c1 [Example 140] and report it.
Result block: > 75%

Query block: Look up inhibition at 1 µM of N#Cc1cnn(C(=O)N2CCN(Cc3ccc(OCc4ccccc4)cc3)CC2)c1 [Example 21] and report it.
Result block: > 75%
